// provenance: the supplement of paper PMC7411054

Tested on: HepG2-TP53BP1-CLTA
procedureSummary: phenotypically active (imaging signature differs from DMSO and reproducible) at any of 0.3-9 uM (binary (1 = active, 0 = inactive)); higher = active
condition: treatment time: 24 h
Counter-ions that a name gives are not always drawn.
parameterMeasured: phenotypically active
Provide a numeric answer; units are not to be included.

CN(N=O)C(=O)N[C@@H](C=O)[C@@H](O)[C@H](O)[C@H](O)CO.CN(N=O)C(=O)N[C@H]1C(O)O[C@H](CO)[C@@H](O)[C@@H]1O [streptozotocin] :: 0
C[C@@H](CO)CCC[C@@H](C)[C@H]1CC[C@H]2[C@@H]3CC=C4C[C@@H](O)CC[C@]4(C)[C@H]3CC[C@]12C [27-Hydroxycholesterol] :: 0
CCN[C@H]1C[C@H](C)S(=O)(=O)c2sc(S(N)(=O)=O)cc21 [dorzolamide] :: 0
N#C/C(=C/c1ccc(O)c(O)c1)C(=O)NCCCCc1ccccc1 :: 1
NCCCCNS(=O)(=O)c1ccc2c(Cl)cccc2c1 [W-13 hydrochloride] :: 0
OCC(CO)N[C@H]1C[C@](O)(CO)[C@@H](O)[C@H](O)[C@H]1O [Voglibose] :: 0
COc1ccc(-c2cc(=O)c3c(O)cc(O)cc3o2)cc1O [Diosmetin] :: 0
O=C(Cc1ccc(-c2ccc(OCCN3CCOCC3)cc2)cn1)NCc1ccccc1 :: 1
CCC(=O)OCC(=O)[C@@]1(OC(=O)CC)[C@@H](C)C[C@H]2[C@@H]3CCC4=CC(=O)C=C[C@]4(C)[C@@]3(Cl)[C@@H](O)C[C@@]21C [beclomethasone-dipropionate] :: 0
O=S(=O)(c1cccc2cnccc12)N1CCNCC1 :: 1

Summary for this compound, CC(=O)Nc1ccc(NC(=S)NC(=O)c2ccc(C(C)(C)C)cc2)cc1 [Tenovin-1] : phenotypically active is 1

Summary for this compound, CC(Oc1ccc(O)cc1)(P(=O)(O)O)P(=O)(O)O : phenotypically active is 0

Summary for this compound, COc1cc2nc(N3CCCN(C)CC3)nc(NC3CCN(Cc4ccccc4)CC3)c2cc1OC : phenotypically active is 1
